test system: 616215-338-R-J1-PDC complex spheroid viability; assay: Anticancer human tumor 616215-338-R-J1-PDC patient-derived colon adenocarcinoma cell line growth inhibition [POLQ]; details: second compound 0.0316 µM; first compound 3.16 µM; hits give low values
result.type: viability, T/C (%)
Answers are plain numbers, in %.

O=C(c1cc(Cc2n[nH]c(=O)c3ccccc23)ccc1F)N1CCN(C(=O)C2CC2)CC1 + Nc1ccc(C#CCN(C(=O)Cc2ncc(C(F)(F)F)cc2C(F)(F)F)c2ccc(F)cc2)nn1
88.5
COc1cc(C2c3cc4c(cc3C(OC3OC5COC(C)OC5C(O)C3O)C3COC(=O)C23)OCO4)cc(OC)c1O (stereo not drawn) + Nc1ccc(C#CCN(C(=O)Cc2ncc(C(F)(F)F)cc2C(F)(F)F)c2ccc(F)cc2)nn1
41.9

Please turn your attention to the following entry.
The compound listed as COc1ccc([C@@H](O)c2cc(-c3ncnc4cc(N5CCOCC5)ccc34)c(F)cc2Cl)nn1 + COC1C(OC(N)=O)C(O)C(Oc2ccc3c(O)c(NC(=O)c4ccc(O)c(CC=C(C)C)c4)c(=O)oc3c2C)OC1(C)C has a reported viability, T/C of 105

###

Kindly state viability, T/C for each of the entries shown.
tested on: 616215-338-R-J1-PDC complex spheroid viability; experiment: Anticancer human tumor 616215-338-R-J1-PDC cell line growth inhibition [POLQ]; details: second compound 1 µM; first compound 0.1 µM; hits give low values;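 also: spheroids exposed to compounds for one week before readout; percent viability relative to DMSO vehicle wells taken as 100%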
Give bare numbers, in %.

Each compound below has a recorded value; state its viability, T/C.
1. CC1COCCN1c1cc(C2(O)CC3CCC(C2)O3)c2cnn(-c3ccn[nH]3)c2n1 (stereo unspecified) + Cc1cccc(N(C)C(=O)C2C(O)CCN2c2nc(C)cc(C(F)(F)F)c2C#N)c1
2. COc1cc2cc(C(=O)CCC(=O)O)sc2cc1OC + Cc1cccc(N(C)C(=O)C2C(O)CCN2c2nc(C)cc(C(F)(F)F)c2C#N)c1
3. C=CC(=O)N1CCN(c2nc(=O)n(-c3c(C)ccnc3C(C)C)c3nc(-c4c(O)cccc4F)c(F)cc23)C(C)C1 (stereo unspecified) + Nc1ccc(C#CCN(C(=O)Cc2ncc(C(F)(F)F)cc2C(F)(F)F)c2ccc(F)cc2)nn1

Response:
[94.7, 101, 95.2]

Each compound below has a recorded value; state its viability, T/C.
1. Nc1ccn(C2OC(CO)C(O)C2(F)F)c(=O)n1 (stereo unspecified) + Cc1cccc(N(C)C(=O)C2C(O)CCN2c2nc(C)cc(C(F)(F)F)c2C#N)c1
2. O=C(c1cc(Cc2n[nH]c(=O)c3ccccc23)ccc1F)N1CCN(C(=O)C2CC2)CC1 + COC1C(OC(N)=O)C(O)C(Oc2ccc3c(O)c(NC(=O)c4ccc(O)c(CC=C(C)C)c4)c(=O)oc3c2C)OC1(C)C
3. C=CCn1c(=O)c2cnc(Nc3ccc(N4CCN(C)CC4)cc3)nc2n1-c1cccc(C(C)(C)O)n1 + Cc1cccc(N(C)C(=O)C2C(O)CCN2c2nc(C)cc(C(F)(F)F)c2C#N)c1
4. CCc1cc2c(N3CCc4c(cc(Cn5ccnc5)cc4-c4cn(C)nc4C(F)(F)F)C3=O)ccnc2c(OC)n1 + COC1C(OC(N)=O)C(O)C(Oc2ccc3c(O)c(NC(=O)c4ccc(O)c(CC=C(C)C)c4)c(=O)oc3c2C)OC1(C)C
5. CC1COCCN1c1cc(C2(S(C)(=N)=O)CC2)nc(-c2ccnc3[nH]ccc23)n1 (stereo unspecified) + Nc1ccc(C#CCN(C(=O)Cc2ncc(C(F)(F)F)cc2C(F)(F)F)c2ccc(F)cc2)nn1
6. Nc1ccn(C2OC(CO)C(O)C2(F)F)c(=O)n1 (stereo unspecified) + COC1C(OC(N)=O)C(O)C(Oc2ccc3c(O)c(NC(=O)c4ccc(O)c(CC=C(C)C)c4)c(=O)oc3c2C)OC1(C)C

Response:
32.2
108
76.7
98.7
101
42.7

Each compound below has a recorded value; state its viability, T/C.
1. CC(C)n1c(=O)n(C)c2cnc3cc(F)c(-c4ccc(OCCCN5CCCCC5)nc4)cc3c21 + Nc1ccc(C#CCN(C(=O)Cc2ncc(C(F)(F)F)cc2C(F)(F)F)c2ccc(F)cc2)nn1
2. Cn1ncnc1[C@H]1c2n[nH]c(=O)c3cc(F)cc(c23)N[C@@H]1c1ccc(F)cc1 + Nc1ccc(C#CCN(C(=O)Cc2ncc(C(F)(F)F)cc2C(F)(F)F)c2ccc(F)cc2)nn1
3. C#Cc1c(F)ccc2cc(O)cc(-c3ncc4c(N5CC6CCC(C5)N6)nc(OCC56CCCN5CC(F)C6)nc4c3F)c12 (stereo unspecified) + Nc1ccc(C#CCN(C(=O)Cc2ncc(C(F)(F)F)cc2C(F)(F)F)c2ccc(F)cc2)nn1

Response:
[99.8, 77.6, 96.2]

###

tested on: 616215-338-R-J1-PDC complex spheroid viability; experiment: Anticancer human tumor 616215-338-R-J1-PDC cell line growth inhibition [POLQ]; settings: second compound 1 µM; first compound 0.316 µM; hits give low values;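 also: spheroids exposed to compounds for one week before readout; percent viability relative to DMSO vehicle wells taken as 100%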
result.type: viability, T/C (%)
Answers are plain numbers, in %.

CCc1c2c(nc3ccc(O)cc13)-c1cc3c(c(=O)n1C2)COC(=O)[C@]3(O)CC + Nc1ccc(C#CCN(C(=O)Cc2ncc(C(F)(F)F)cc2C(F)(F)F)c2ccc(F)cc2)nn1
17
CC1COCCN1c1cc(-c2ccnn2C)c2ccnc(-c3ccn[nH]3)c2n1 (stereo not given) + Nc1ccc(C#CCN(C(=O)Cc2ncc(C(F)(F)F)cc2C(F)(F)F)c2ccc(F)cc2)nn1
29
COc1cc(C2c3cc4c(cc3C(OC3OC5COC(C)OC5C(O)C3O)C3COC(=O)C23)OCO4)cc(OC)c1O (stereo not given) + Cc1cccc(N(C)C(=O)C2C(O)CCN2c2nc(C)cc(C(F)(F)F)c2C#N)c1
85.4

Each compound below has a recorded value; state its viability, T/C.
1. CCc1c2c(nc3ccc(O)cc13)-c1cc3c(c(=O)n1C2)COC(=O)[C@]3(O)CC + Cc1cccc(N(C)C(=O)C2C(O)CCN2c2nc(C)cc(C(F)(F)F)c2C#N)c1
2. CNCc1ccc(-c2[nH]c3cc(F)cc4c3c2CCNC4=O)cc1 + COC1C(OC(N)=O)C(O)C(Oc2ccc3c(O)c(NC(=O)c4ccc(O)c(CC=C(C)C)c4)c(=O)oc3c2C)OC1(C)C
3. CC1COCCN1c1cc(C2(S(C)(=N)=O)CC2)nc(-c2ccnc3[nH]ccc23)n1 (stereo not given) + COC1C(OC(N)=O)C(O)C(Oc2ccc3c(O)c(NC(=O)c4ccc(O)c(CC=C(C)C)c4)c(=O)oc3c2C)OC1(C)C
4. CC(C)n1c(=O)n(C)c2cnc3cc(F)c(-c4ccc(OCCCN5CCCCC5)nc4)cc3c21 + COC1C(OC(N)=O)C(O)C(Oc2ccc3c(O)c(NC(=O)c4ccc(O)c(CC=C(C)C)c4)c(=O)oc3c2C)OC1(C)C
5. COc1cccc2c1C(=O)c1c(O)c3c(c(O)c1C2=O)CC(O)(C(=O)CO)CC3OC1CC(N)C(O)C(C)O1 (stereo not given) + Nc1ccc(C#CCN(C(=O)Cc2ncc(C(F)(F)F)cc2C(F)(F)F)c2ccc(F)cc2)nn1
6. CC1COCCN1c1cc(C2(S(C)(=N)=O)CC2)nc(-c2ccnc3[nH]ccc23)n1 (stereo not given) + Nc1ccc(C#CCN(C(=O)Cc2ncc(C(F)(F)F)cc2C(F)(F)F)c2ccc(F)cc2)nn1
7. C#Cc1c(F)ccc2cc(O)cc(-c3ncc4c(N5CC6CCC(C5)N6)nc(OCC56CCCN5CC(F)C6)nc4c3F)c12 (stereo not given) + COC1C(OC(N)=O)C(O)C(Oc2ccc3c(O)c(NC(=O)c4ccc(O)c(CC=C(C)C)c4)c(=O)oc3c2C)OC1(C)C

Response:
[26, 101, 108, 95.2, 35.9, 90.9, 109]

###

Tested on: 616215-338-R-J1-PDC complex spheroid viability
Test: Anticancer human tumor 616215-338-R-J1-PDC cell line growth inhibition [POLQ];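 also: spheroids exposed to compounds for one week before readout; percent viability relative to DMSO vehicle wells taken as 100%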
Settings: second compound 0.0316 µM; first compound 0.01 µM; hits give low values
Method: Multicellular complex tumor spheroid response to Polymerase (POL) inhibitors (novobiocin, ART-558, RP6685) in combination with a variety of drugs and investigational agents in selected tumor cell lines The POL inhibitors (novobiocin, ART-558, and RP6685) were evaluated both individually and in combination with standard of care and investigational anticancer small molecules within a complex spheroid model of solid tumors. . […]
result.type: viability, T/C (%)
Numbers only, in %.

Some molecules with recorded viability, T/C:
COc1cccc(OCCCN)c1-c1cc(Nc2cnc(C#N)cn2)n[nH]1 + Nc1ccc(C#CCN(C(=O)Cc2ncc(C(F)(F)F)cc2C(F)(F)F)c2ccc(F)cc2)nn1
84.9
Cn1ncnc1[C@H]1c2n[nH]c(=O)c3cc(F)cc(c23)N[C@@H]1c1ccc(F)cc1 + COC1C(OC(N)=O)C(O)C(Oc2ccc3c(O)c(NC(=O)c4ccc(O)c(CC=C(C)C)c4)c(=O)oc3c2C)OC1(C)C
107
C=CCn1c(=O)c2cnc(Nc3ccc(N4CCN(C)CC4)cc3)nc2n1-c1cccc(C(C)(C)O)n1 + COC1C(OC(N)=O)C(O)C(Oc2ccc3c(O)c(NC(=O)c4ccc(O)c(CC=C(C)C)c4)c(=O)oc3c2C)OC1(C)C
97.8
Cn1ncnc1[C@H]1c2n[nH]c(=O)c3cc(F)cc(c23)N[C@@H]1c1ccc(F)cc1 + Nc1ccc(C#CCN(C(=O)Cc2ncc(C(F)(F)F)cc2C(F)(F)F)c2ccc(F)cc2)nn1
95.1

Each molecule below has a recorded value; state its viability, T/C.
1. CC[C@@]1(O)C(=O)OCc2c1cc1n(c2=O)Cc2cc3c(CN(C)C)c(O)ccc3nc2-1 + Cc1cccc(N(C)C(=O)C2C(O)CCN2c2nc(C)cc(C(F)(F)F)c2C#N)c1
2. CC[C@@]1(O)C(=O)OCc2c1cc1n(c2=O)Cc2cc3c(CN(C)C)c(O)ccc3nc2-1 + Nc1ccc(C#CCN(C(=O)Cc2ncc(C(F)(F)F)cc2C(F)(F)F)c2ccc(F)cc2)nn1
3. CCc1c2c(nc3ccc(O)cc13)-c1cc3c(c(=O)n1C2)COC(=O)[C@]3(O)CC + COC1C(OC(N)=O)C(O)C(Oc2ccc3c(O)c(NC(=O)c4ccc(O)c(CC=C(C)C)c4)c(=O)oc3c2C)OC1(C)C
4. CCc1c2c(nc3ccc(O)cc13)-c1cc3c(c(=O)n1C2)COC(=O)[C@]3(O)CC + Cc1cccc(N(C)C(=O)C2C(O)CCN2c2nc(C)cc(C(F)(F)F)c2C#N)c1
5. COc1cccc(OCCCN)c1-c1cc(Nc2cnc(C#N)cn2)n[nH]1 + COC1C(OC(N)=O)C(O)C(Oc2ccc3c(O)c(NC(=O)c4ccc(O)c(CC=C(C)C)c4)c(=O)oc3c2C)OC1(C)C
6. C=CCn1c(=O)c2cnc(Nc3ccc(N4CCN(C)CC4)cc3)nc2n1-c1cccc(C(C)(C)O)n1 + Cc1cccc(N(C)C(=O)C2C(O)CCN2c2nc(C)cc(C(F)(F)F)c2C#N)c1
7. COc1cccc(OCCCN)c1-c1cc(Nc2cnc(C#N)cn2)n[nH]1 + Cc1cccc(N(C)C(=O)C2C(O)CCN2c2nc(C)cc(C(F)(F)F)c2C#N)c1
8. C=CCn1c(=O)c2cnc(Nc3ccc(N4CCN(C)CC4)cc3)nc2n1-c1cccc(C(C)(C)O)n1 + Nc1ccc(C#CCN(C(=O)Cc2ncc(C(F)(F)F)cc2C(F)(F)F)c2ccc(F)cc2)nn1

Response:
101
101
87.6
97
109
87.5
89.4
98.7

Each molecule below has a recorded value; state its viability, T/C.
1. CCc1c2c(nc3ccc(O)cc13)-c1cc3c(c(=O)n1C2)COC(=O)[C@]3(O)CC + Nc1ccc(C#CCN(C(=O)Cc2ncc(C(F)(F)F)cc2C(F)(F)F)c2ccc(F)cc2)nn1
2. CC[C@@]1(O)C(=O)OCc2c1cc1n(c2=O)Cc2cc3c(CN(C)C)c(O)ccc3nc2-1 + COC1C(OC(N)=O)C(O)C(Oc2ccc3c(O)c(NC(=O)c4ccc(O)c(CC=C(C)C)c4)c(=O)oc3c2C)OC1(C)C
3. Cn1ncnc1[C@H]1c2n[nH]c(=O)c3cc(F)cc(c23)N[C@@H]1c1ccc(F)cc1 + Cc1cccc(N(C)C(=O)C2C(O)CCN2c2nc(C)cc(C(F)(F)F)c2C#N)c1

Response:
1. 51.4
2. 97.6
3. 102
